- Assay System: Apolipoprotein L1 (Homo sapiens)
- Assay Remarks: Inhibition of APOL1 G1 variant in human HEK293-T-REx cells measured by Thallium assay
pIC50: −log10 of the molar value.
Measured Endpoint: pIC50

Compound | pIC50
CC(CO)(CO)NC(=O)[C@H]1C[C@@H](c2c(-c3ccc(F)cc3)[nH]c3c(F)cc(F)cc32)C1 | 9.60
C[C@@H](NC(=O)[C@H]1C[C@H](c2c(-c3ccc(F)cc3)[nH]c3c(F)cc(F)cc32)C1)C(=O)N(C)C | < 6.00
CC1(CNC(=O)C2CC(Cc3c(-c4ccc(F)cc4)[nH]c4c(F)cc(F)cc34)C2)CCOC1 (configuration not stated) | < 6.00

# lookup: pIC50 of NC(=O)CNC(=O)[C@H]1C[C@H](c2c(-c3ccc(F)cc3)[nH]c3c(F)cc(F)cc32)C1
> 6.60

// returns reported pIC50 for input CC(C)[C@@H](CO)NC(=O)O[C@H]1C[C@H](c2c(-c3ccc(F)cc3)[nH]c3c(F)cc(F)cc32)C1
< 6.00

Record request: pIC50 value, item O=C(NCCO)C1CC(c2c(-c3ccc(F)cc3)[nH]c3c(F)cc(C(F)(F)F)cc23)C1 (configuration not stated)
9.60

Which pIC50 value is on record for Cc1cc(CNC(=O)C2CC(Cc3c(-c4ccc(F)cc4)[nH]c4c(F)cc(F)cc34)C2)nn1C (configuration not stated) ?
< 6.00

Look up pIC50: CC[C@H](CO)NC(=O)NC[C@H]1C[C@H](c2c(-c3ccc(F)cc3)[nH]c3c(F)cc(F)cc32)C1
< 6.00

====

- Assay System: Apolipoprotein L1 (Homo sapiens)
- Assay Remarks: Inhibition of APOL1 G1 variant in human HEK293-T-REx cells measured by Thallium assay
Measured Endpoint: IC50

Molecule | IC50
CO[C@H]1CCN(C(=O)[C@H]2C[C@H](c3c(-c4ccc(F)cc4)[nH]c4c(F)cc(F)cc43)C2)C1 | > 1000 nM
O=C(NC[C@H]1C[C@H](c2c(-c3ccc(F)cc3)[nH]c3c(F)cc(F)cc32)C1)NC1(CO)CC(F)(F)C1 | > 1000 nM
C[C@@H](NC(=O)[C@H]1C[C@H](c2c(-c3ccc(F)cc3)[nH]c3c(F)cc(F)cc32)C1)C(N)=O | 0.25 nM
CNC(=O)C(C)NC(=O)[C@H]1C[C@H](c2c(-c3ccc(F)cc3)[nH]c3c(F)cc(F)cc32)C1 (stereo partly drawn) | 0.25 nM
O=C([C@H]1C[C@H](c2c(-c3ccc(F)cc3)[nH]c3c(F)cc(F)cc32)C1)N(CCOCCO)C1CCC1 | > 1000 nM

Fill in the blank: the reported IC50 of O=C(CNC(=O)[C@H]1C[C@H](c2c(-c3ccc(F)cc3)[nH]c3c(F)cc(F)cc32)C1)NCCO is ____.
> 1000 nM

Could you share which IC50 value was measured for O=C1NCC[C@H]1NC(=O)[C@H]1C[C@@H](c2c(-c3ccc(F)cc3)[nH]c3c(F)cc(F)cc32)C1 ?
> 1000 nM

Which IC50 is reported for this molecule? C[C@H](NCC1CC(c2c(-c3ccc(F)cc3)[nH]c3c(F)cc(F)cc23)C1)C(=O)N(C)C (stereo partly drawn)
0.25 nM

====

- Assay System: Apolipoprotein L1 (Homo sapiens, UniProt O14791)
- Assay Remarks: Inhibition of APOL1 G1 variant in human HEK293-T-REx cells measured by Thallium assay
# IC50 per entry

Molecule | IC50
NC(=O)[C@@H](CO)NC(=O)[C@H]1C[C@H](c2c(-c3ccc(F)cc3)[nH]c3c(F)cc(F)cc32)C1 | < 0.25 µM

// lookup IC50 for O=C([C@H]1C[C@H](c2c(-c3ccc(F)cc3)[nH]c3c(F)cc(F)cc32)C1)N1CCOCC1CCO (stereo partly specified)
> 1 µM

What measured IC50 goes with CCNC(=O)NC[C@H]1C[C@H](c2c(-c3ccc(F)cc3)[nH]c3c(F)cc(F)cc32)C1 ?
> 1 µM

// query IC50 value for entry C[C@@H](O)CNC(=O)NC[C@H]1C[C@H](c2c(-c3ccc(F)cc3)[nH]c3c(F)cc(F)cc32)C1
> 1 µM

====

- Assay System: Apolipoprotein L1 (Homo sapiens)
- Assay Remarks: Inhibition of APOL1 G1 variant in human HEK293-T-REx cells measured by Thallium assay
pIC50: −log10 of the molar value.
Quick reference for pIC50 among some compounds

Compound | pIC50
O=C([C@H]1C[C@H](c2c(-c3ccc(F)cc3)[nH]c3c(F)cc(F)cc32)C1)N1CCC(CO)(CO)CC1 | < 6.00
COC[C@@H]1CCN1C(=O)[C@H]1C[C@H](c2c(-c3ccc(F)cc3)[nH]c3c(F)cc(F)cc32)C1 | < 6.00
CC[C@H](NCC1CC(c2c(-c3ccc(F)cc3)[nH]c3c(F)cc(F)cc23)C1)C(=O)NCC(F)(F)F (stereo partly drawn) | < 6.00
CC(CO)CNC(=O)[C@H]1C[C@H](c2c(-c3ccc(F)cc3)[nH]c3c(F)cc(F)cc32)C1 (stereo partly drawn) | 9.60
CNC(=O)C(C)NCC1CC(c2c(-c3ccc(F)cc3)[nH]c3c(F)cc(F)cc23)C1 (stereo not drawn) | 9.60
CC1(C)CN(C(=O)[C@H]2C[C@H](c3c(-c4ccc(F)cc4)[nH]c4c(F)cc(F)cc43)C2)CC1O (stereo partly drawn) | < 6.00

Would you kindly share the measured pIC50 for CC(CO)(CO)NC(=O)NC[C@H]1C[C@H](c2c(-c3ccc(F)cc3)[nH]c3c(F)cc(F)cc32)C1 ?
< 6.00

Fill in: pIC50 of O=C1CC(CNC(=O)C2CC(Cc3c(-c4ccc(F)cc4)[nH]c4c(F)cc(F)cc34)C2)CN1 (stereo not drawn) is ___
< 6.00

====

IC50 by entry:
- Assay System: Apolipoprotein L1 (Homo sapiens)
- Assay Remarks: Inhibition of APOL1 G1 variant in human HEK293-T-REx cells measured by Thallium assay

Previously resolved entries follow.
Molecule | IC50
O=C(NCC(F)F)[C@H]1C[C@@H](c2c(-c3ccc(F)cc3)[nH]c3c(F)cc(F)cc32)C1 | 0.25 nM
C[C@H](NC(=O)C1CC(Cc2c(-c3ccc(F)cc3)[nH]c3c(F)cc(F)cc23)C1)C(C)(C)O (stereo partly drawn) | > 1000 nM
O=C([C@H]1C[C@H](c2c(-c3ccc(F)cc3)[nH]c3c(F)cc(F)cc32)C1)N1CCC[C@@H](O)C1 (mixture of isomers) | 0.25 nM

For the record C[C@H](NC(=O)[C@H]1C[C@H](c2c(-c3ccc(F)cc3)[nH]c3c(F)cc(F)cc32)C1)C(=O)N(C)C , what value of IC50 is listed for Apolipoprotein L1 (Homo sapiens)?
0.25 nM

Checklist item: IC50 tested on Apolipoprotein L1 (Homo sapiens), entry O=C(NC1(CO)CC1)[C@H]1C[C@H](c2c(-c3ccc(F)cc3)[nH]c3c(F)cc(F)cc32)C1 , value?
0.25 nM

Reported IC50 for Apolipoprotein L1 (Homo sapiens), given O=C(NC[C@H]1C[C@H](c2c(-c3ccc(F)cc3)[nH]c3c(F)cc(F)cc32)C1)NC1CC(O)C1 (stereo partly drawn) ?
> 1000 nM

Can you look up IC50 on Apolipoprotein L1 (Homo sapiens) for NC(=O)C(CO)NC(=O)[C@H]1C[C@@H](c2c(-c3ccc(F)cc3)[nH]c3c(F)cc(F)cc32)C1 (stereo partly drawn) ?
> 1000 nM

IC50 of O=C(NC[C@H]1C[C@H](c2c(-c3ccc(F)cc3)[nH]c3c(F)cc(F)cc32)C1)NC(CO)C(F)(F)F (stereo partly drawn) on Apolipoprotein L1 (Homo sapiens)?
> 1000 nM

====

// pIC50 lookup, one value per entry
- Assay System: Apolipoprotein L1 (Homo sapiens, UniProt O14791)
- Assay Remarks: Inhibition of APOL1 G1 variant in human HEK293-T-REx cells measured by Thallium assay
pIC50: −log10 of the molar value.

Compound | Assay System | pIC50
O=C([C@H]1C[C@H](c2c(-c3ccc(F)cc3)[nH]c3c(F)cc(F)cc32)C1)N1CCCC(O)C1 (stereo partly drawn) | Apolipoprotein L1 (Homo sapiens, UniProt O14791) | < 6.00

What value of pIC50 has been reported for the following compound? CC(O)(CO)CNC(=O)O[C@H]1C[C@H](c2c(-c3ccc(F)cc3)[nH]c3c(F)cc(F)cc32)C1 (stereo partly drawn)
< 6.00

Record request: pIC50 value, item O=C([C@H]1C[C@H](c2c(-c3ccc(F)cc3)[nH]c3c(F)cc(F)cc32)C1)N1CCOC[C@@H]1CO
9.60

Which pIC50 is listed for C[C@H](CO)N(C)C(=O)NC[C@H]1C[C@H](c2c(-c3ccc(F)cc3)[nH]c3c(F)cc(F)cc32)C1 ?
< 6.00

Request the reported pIC50 associated with Cn1cncc1CNC(=O)[C@H]1C[C@H](c2c(-c3ccc(F)cc3)[nH]c3c(F)cc(F)cc32)C1
< 6.00

Please look up its pIC50: O=C(N[C@H]1CC[C@H]1O)[C@H]1C[C@H](c2c(-c3ccc(F)cc3)[nH]c3c(F)cc(F)cc32)C1
9.60

Fill in the blank: the reported pIC50 of O=C(NC[C@H]1C[C@H](c2c(-c3ccc(F)cc3)[nH]c3c(F)cc(F)cc32)C1)N[C@H]1C[C@H](O)C1 is ____.
< 6.00

Look up pIC50: O=C1CCC(NC(=O)[C@H]2C[C@@H](c3c(-c4ccc(F)cc4)[nH]c4c(F)cc(F)cc43)C2)C(=O)N1 (stereo partly drawn)
< 6.00
